From: patent US20210253725A1

Target: T1, CD27 expressed on the cell surface (HT1080_CD27 cells) (human, UniProt P26842 20-260); note: test concentration or dose not given here
T1 sequence (looked up): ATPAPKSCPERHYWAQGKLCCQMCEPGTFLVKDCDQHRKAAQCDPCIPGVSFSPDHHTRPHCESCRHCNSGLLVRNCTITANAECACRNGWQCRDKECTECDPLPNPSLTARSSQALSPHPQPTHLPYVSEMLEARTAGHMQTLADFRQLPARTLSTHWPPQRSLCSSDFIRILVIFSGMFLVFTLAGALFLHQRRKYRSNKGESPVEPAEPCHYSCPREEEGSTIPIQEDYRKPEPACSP
Test: cell-based or functional assay
Could you please report measured IL-8 [abs. corr.] for the items listed next?

Q: Sample P018.S.10.A.F05 (antibody, V domains shown, V regions on human Ig constant parts; also called AB27_181) VH: QSVEESGGRLVTPGTPLTLTCTVSGFSLSGYHMCWVRQAPGKGLQYIGIIGSNGVTYYASWAKSRSTITRNTNENTVTLKMTSLTTEDTATYFCARSSGWGARFNLWGQGTLVTVSS VL: AQVLTQTPASVSAAVGGTVTINCQASQSVYNDNELSWYQQKPGQPPKLLIYKASTLTSGVPLRFSGSGSGTQFTLTISDVQSDDAATYYCLGGGSTPSDSTFGGGTEVVVK — what was its IL-8 [abs. corr.]?
Result: 0.267 abs. corr.

Q: Can you handle P018.S.01.A.A05 (antibody, V domains shown, V regions on human Ig constant parts; also called AB27_2) VH: QEQLEESGGDRVQPEGSLTLTCTASGFSFSATYWICWVRQAPGKGLEWIACIFGRSSSDTYYASWAKGRFTISKTSSTTVTLQMTSLTAADTATYFCARGDSGHPYYYSFNLWGPGTLVTVSS VL: AYDMTQTPASVEVAVGGTVTIKCQASQSIGGYLAWYQQKPGQPPKLLIYGASTLASGVPSRFRGSGSGTEFTLTISDLDSADAATYYCQCTHGTRSDWAFGGGTEVVVK next?
Result: 0.328 abs. corr.

Q: Can you handle P018.S.01.A.C06 (antibody, V domains shown, V regions on human Ig constant parts; also called AB27_10) VH: QSVEESGGRLVTPGTPLTLTCTVSGIDLNNYVMGWVRQAPGKGLEWIGIINTAGSTYYANWAKGRFTISKTSTTVDLKITSPTTEDTATYFCARDSSYYIGYYFNLWGPGTLVTVSS VL: QIVMTQTPASVEVAVGGTVTIKCQASQSIGSNLAWYQQKPGQPPKLLIYDASDLESGVPSRFKGSGSGAQFTLTISDLESADAATYYCQQGYSATTNVDNAFGGGTEVVVK next?
Result: 0.325 abs. corr.

Q: Can you handle P018.S.04.A.H04 (antibody, V domains shown, V regions on human Ig constant parts; also called AB27_79) VH: QSVEESGGRLVTPGTPLTLTCTVSRFSLSTSTMTWVRQAPGKGLEWIGIINGGGSAYYANWAKGRFTISKTSTTVDLKITSPTTEDTATYFCARSYDSYDDIYGTSRLYAFDPWGPGTLVTVSS VL: AYDMTQTPASVEVAVGGTVTINCQASESIYSNLAWYQQKPGQPPKLLIYRASYLASGVSSRFKGSGSGTQFTLTISGVESADAATYYCQQGYSSSDVDNAFGGGTEVVVK next?
Result: 0.579 abs. corr.

Q: Can you handle P018.S.01.A.E03 (antibody, V domains shown, V regions on human Ig constant parts; also called AB27_15) VH: QSVEESGGRLVTPGTPLTLTCTVSGFSLSSYAMGWVRQAPGKGLQWIGILYRNDAASYANWAKGRFTISKTSTTVDLTMPSLTTEDTATYFCVRGYVNDGYYNLWGQGTLVTVSS VL: AYDMTQTPASVEVAVGGTVTIKCQASESIGYRLAWYQQKSGQPPKLLIFDASDLASGVPSRFKGSGSGKHFTLTISGVQSADAATYYCQQDYSYSIIDNSFGGGTEVVVK next?
Result: 0.436 abs. corr.

Q: Can you handle P018.S.04.A.D04 (antibody, V domains shown, V regions on human Ig constant parts; also called AB27_72) VH: QSVEESGGRLVTPGTPLTLTCTVSGIDLSSYSMTWVRQAPGKGLEWIGFINTGGRGYYASWAKGRFTISKTSTTVDLKITSPTTEDTATYFCARDAGSSRGYYRDLWGQGTLVTVSS VL: AYDMTQTPASVSAAVGGTVTIKCQASEDIYSLLAWYQQKPGQPPKLLIYDASDLASGVPSRFSGSGSGTDYTLTISGVESADAATYYCQQGYTTSTTVDNIFGGGTEVVVK next?
Result: 0.486 abs. corr.

Q: Can you handle P018.S.10.A.C06 (antibody, V domains shown, V regions on human Ig constant parts; also called AB27_174) VH: QSLEESGGRLVTPGTPLTLTCTVSGIDLNNNAMTWVRQAPGEGLEWIGIISTADTTTYASWTKGRFTISKTSTTVDLKITSPTTEDTATYFCARAAYFSYGYFNLWGQGTLVTVSS VL: DIVMTQTPASVEAAVGGTVTIKCQASQNIGNALAWYQQKPGQPPKLLIYGASTLASGVPSRFKGSGSGTEFTLTISDLESADATTYFCQSYVYSDGNVFGGGTEVVVK next?
Result: 0.28 abs. corr.

Q: Can you handle P018.S.08.A.E02 (antibody, V domains shown, V regions on human Ig constant parts; also called AB27_139) VH: QSLEESGGRLVTPGGSLTLTCTVSGIDLSSYDMNWVRQAPGEGLEWIGAISTGGDTHYTNWAKGRFTISKTSTTVDLKMTSLTAADTATYFCARGYYTLALWGQGTLVTVSS VL: DPVLTQTPASVEAAVGGTVTIKCQASQSINSWLSWYQQKPGQPPKRLIYDTSTLESGVPSRFSGGESGTEFTLTISDLESDDAATYYCQSYYYITSSYAITFGGGTEVVVK next?
Result: 0.315 abs. corr.

Q: Can you handle P018.S.01.A.H02 (antibody, V domains shown, V regions on human Ig constant parts; also called AB27_25) VH: QSVEESGGRLVTPGTPLTLTCTASGFSLSSYHMQWVRQAPGKGLEWIGIIYAGSGNTWYASWAKGRFTISKTSTTVDLKITSPTTEDTAAYFCARQPGGDASDTQLDLWGQGTLVTVSS VL: AAVLTQTASPVSAAVGGTVTINCQSSQSVFDHNQLSWFQHKPGQSPKLLIYRASTLASGVPSRFKGSGSGTQFTLTISDVQSDDAATYYCLGGYSSSSDTVFGGGTEVVVK next?
Result: 0.3 abs. corr.

Q: Can you handle P018.S.06.A.F06 (antibody, V domains shown, V regions on human Ig constant parts; also called AB27_110) VH: QSVEESGGRLVTPGTPLTLTCAASGFSLNSYVMSWVRQAPGKGLEWIGYIDYGGAPYYASWAKGRFTISKTSTTVELKITSPTIEDTGTYFCARGGYGGYVLVTALWGPGTLVTVSS VL: DIVMTQTPASVSEPVGGTVTIKCQASENIYSYLAWYQQKPGQPPKLLIYQASTLASGVSSRFKGSGSGTQFTLTISDLESADAATYYCQTYYGGSTYGNGFGGGTEVVVE next?
Result: 0.7 abs. corr.
